Tested on: Mycobacterium tuberculosis
testName: Antimycobacterial activity against Mycobacterium tuberculosis H37Rv ATCC 27294 microplate alamar blue assay
Format: functional
experimentalReadout: IC90

Cc1c(C(=O)NCc2ccc(Cl)cc2)[n+]([O-])c2ccccc2[n+]1[O-]; 11 µg/mL
Cc1c(C(=O)NCc2ccc3c(c2)OCO3)[n+]([O-])c2cc(Cl)ccc2[n+]1[O-]; 6.99 µg/mL
O=C(NCc1ccccc1)c1c(-c2ccccc2)[n+]([O-])c2ccc(C(F)(F)F)cc2[n+]1[O-]; > 100 µg/mL
O=C(NCc1ccccc1)c1c(-c2ccccc2)[n+]([O-])c2ccc(Cl)cc2[n+]1[O-]; 3.39 µg/mL
Cc1c(C(=O)NCc2ccc(Cl)cc2)[n+]([O-])c2cc(Cl)c(Cl)cc2[n+]1[O-]; 51.9 µg/mL
Cc1c(C(=O)NCc2ccc3c(c2)OCO3)[n+]([O-])c2cc(Cl)c(Cl)cc2[n+]1[O-]; 34.9 µg/mL
Cc1ccc2c(c1)[n+]([O-])c(C(=O)NCc1ccc(Br)cc1)c(C)[n+]2[O-]; 78.2 µg/mL
COc1ccc2c(c1)[n+]([O-])c(C(=O)NCc1ccccc1)c(-c1ccccc1)[n+]2[O-]; 14.6 µg/mL

The reported value for COc1ccc2c(c1)[n+]([O-])c(C(=O)NCc1ccc(C(F)(F)F)cc1)c(C)[n+]2[O-] in terms of IC90 is > 100 µg/mL

Recorded IC90 (molecule O=C(Nc1ccccc1)c1c(-c2ccccc2)[n+]([O-])c2ccc(F)cc2[n+]1[O-] ): 17.9 µg/mL

Lab note: measured IC90 of Cc1ccc2c(c1)[n+]([O-])c(C(=O)NCc1ccc3c(c1)OCO3)c(C)[n+]2[O-] was 13.2 µg/mL

In plain terms, Cc1c(C(=O)NCc2ccc(C(F)(F)F)cc2)[n+]([O-])c2cc(F)ccc2[n+]1[O-] has a documented IC90 of 4.48 µg/mL

Form: molecule = O=C(Nc1ccccc1)c1c(-c2ccccc2)[n+]([O-])c2ccc(Cl)cc2[n+]1[O-] ; IC90 = 6.71 µg/mL

The reported IC90 of the molecule O=C(NCCc1ccccc1)c1c(-c2ccccc2)[n+]([O-])c2ccccc2[n+]1[O-] was 18.6 µg/mL

Briefly, IC90 measured for Cc1ccc(CNC(=O)c2c(C)[n+]([O-])c3ccc(C)cc3[n+]2[O-])cc1 : 99.9 µg/mL

The recorded IC90 for entry Cc1c(C(=O)NCc2ccc(C(F)(F)F)cc2)[n+]([O-])c2cc(C(F)(F)F)ccc2[n+]1[O-] equals 3.38 µg/mL

For record Cc1c(C(=O)NCc2ccc(C(F)(F)F)cc2)[n+]([O-])c2ccccc2[n+]1[O-] the listed IC90 is 16.8 µg/mL

Consider Cc1ccc2c(c1)[n+]([O-])c(C(=O)Nc1ccccc1)c(-c1ccccc1)[n+]2[O-] . Its measured IC90 is 24.6 µg/mL
